# target system: 5-HT2A receptor (Homo sapiens (Human), UniProt P28223)
# Sequence (P28223 whole entry): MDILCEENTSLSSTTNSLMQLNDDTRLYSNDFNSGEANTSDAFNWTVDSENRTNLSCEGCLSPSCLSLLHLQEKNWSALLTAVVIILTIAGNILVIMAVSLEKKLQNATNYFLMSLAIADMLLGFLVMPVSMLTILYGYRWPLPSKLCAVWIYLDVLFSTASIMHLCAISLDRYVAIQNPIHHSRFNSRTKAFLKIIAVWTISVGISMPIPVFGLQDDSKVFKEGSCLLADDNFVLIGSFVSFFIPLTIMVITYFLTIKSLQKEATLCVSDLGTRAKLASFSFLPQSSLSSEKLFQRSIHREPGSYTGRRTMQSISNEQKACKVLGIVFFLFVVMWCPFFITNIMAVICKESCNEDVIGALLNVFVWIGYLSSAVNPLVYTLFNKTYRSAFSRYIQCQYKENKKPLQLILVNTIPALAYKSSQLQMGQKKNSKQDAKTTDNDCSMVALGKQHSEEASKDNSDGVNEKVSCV
# test method notes: Radioligand binding assay ([3H]5-HT competition), 5-HT2A
# settings: [3H]5-HT radioligand, membranes of HEK293 cells expressing recombinant 5-HT2A; Ki from IC50 by Cheng-Prusoff; read-out: 5-HT2A serotonin binding Ki value
readout name: pKi
Answers are plain numbers, as −log10 of the molar value.

Check out these entries, answers already filled in.
Query :: What pKi value was documented for this compound, Cc1noc(C)c1-c1cc(NC(=O)C2CC2)ccc1OCCN(C)CC1CC1 ?
Result :: 7.33

Query :: What pKi value was documented for this compound, Cc1noc(C)c1-c1cc(NC(=O)C2(F)CC2)ccc1OCCN1CCCC1 ?
Result :: 8.58

Query :: What pKi value was documented for this compound, Cc1noc(C)c1-c1cc(NC(=O)[C@@H]2C[C@@H]2F)ccc1OCCN1CCCC1 ?
Result :: 8.21

Provide the reported pKi of each entry below, same order.
1. Cc1noc(C)c1-c1cc(NC(=O)c2ccccc2)ccc1OC[C@H]1CCCCN1
2. CCN(C)CCOc1ccc(NC(=O)C2CC2)cc1-c1c(C)noc1C
3. Cc1noc(C)c1-c1cc(NC(=O)C2(F)CC2)ccc1OC1CNC1
4. CCOCCC(=O)Nc1ccc(OCCN2CCCC2)c(-c2c(C)noc2C)c1

Result ::
1: 8.31; 2: 7.86; 3: 8.69; 4: 7.11
